Target: CYP124 (Rv2266, CYP124A1) (Mycobacterium tuberculosis)
Sequence (P9WPP3 1-428): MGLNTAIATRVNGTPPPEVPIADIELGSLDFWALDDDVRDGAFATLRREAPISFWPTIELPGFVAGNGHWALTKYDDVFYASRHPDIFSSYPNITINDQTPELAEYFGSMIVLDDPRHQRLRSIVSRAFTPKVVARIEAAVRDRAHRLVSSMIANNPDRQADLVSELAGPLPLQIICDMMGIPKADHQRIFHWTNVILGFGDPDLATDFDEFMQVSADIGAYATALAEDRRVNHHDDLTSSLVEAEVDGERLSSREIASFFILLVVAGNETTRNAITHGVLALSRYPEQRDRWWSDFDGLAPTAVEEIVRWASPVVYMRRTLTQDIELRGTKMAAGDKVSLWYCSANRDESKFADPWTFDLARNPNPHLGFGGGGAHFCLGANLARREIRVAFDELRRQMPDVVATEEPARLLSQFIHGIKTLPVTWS
measure_name: pKd
Expect pKd as a plain number equal to -log10 of the molar concentration.

Check the records and state pKd for CC(C)=CCC/C(C)=C\CNCCNC1C2CC3CC(C2)CC1C3 (stereo not shown)
5.47
